- system.under.test: tau (Homo sapiens)
- Sequence (P10636 623-695 limits assumed): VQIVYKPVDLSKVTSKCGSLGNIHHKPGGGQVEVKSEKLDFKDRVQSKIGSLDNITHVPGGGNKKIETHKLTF
- test.protocol: MCE Phenols Library screening, tau biosensor cell seeding assay (AvZ)
- Assay type: cell-based
- condition.label: Z score, replicate 2
Lab note - cut at -0.06 for Z Repl 2: condition met if strictly below, condition not met if not.

>  <molecule>
COc1cc(O)c(C(=O)/C=C/c2ccccc2)c(OC)c1

>  <assigned.class>
condition met

$$$$
>  <molecule>
O=C1c2ccccc2C(=O)c2c1cc(O)c(CO)c2O

>  <assigned.class>
condition met

$$$$
>  <molecule>
COc1cc2ccc(=O)oc2c(O[C@@H]2O[C@H](CO)[C@@H](O)[C@H](O)[C@H]2O)c1O

>  <assigned.class>
condition met

$$$$
>  <molecule>
COc1cc(/C=C/c2ccc(O)c(O)c2)cc(OC)c1 [3'-Hydroxypterostilbene]

>  <assigned.class>
condition not met

$$$$
>  <molecule>
COc1ccccc1O

>  <assigned.class>
condition met

$$$$
>  <molecule>
COC1=C[C@@H]2[C@@H]3Cc4ccc(OC)c(O)c4[C@]2(CCN3C)CC1=O.Cl [Sinomenine hydrochloride]

>  <assigned.class>
condition not met

$$$$
>  <molecule>
CC(C)=CCc1c(O)ccc(C(=O)[C@@H]2[C@@H](c3c(O)cc(O)c4c(=O)c(CC=C(C)C)c(-c5ccc(O)cc5O)oc34)C=C(C)C[C@H]2c2ccc(O)cc2O)c1O

>  <assigned.class>
condition not met

$$$$
>  <molecule>
C=C(C)[C@H](CC=C(C)C)Cc1c(O)cc(O)c2c1O[C@H](c1ccccc1O)CC2=O

>  <assigned.class>
condition not met

$$$$
